Test system: CCRF-CEM
assay.comment: In vitro inhibitory activity against CCRF-CEM cell growth in culture, after 48-h incubation.
Format: functional
run.parameters: Homo sapiens, read-out: ID50 (the source's name)
The entries below come with measured IC50 values attached.
Reply with the number, then its unit.

Below, each entry is followed by its recorded IC50 result.
• COc1cccc2c1C(=O)c1c(O)c3c(c(O)c1C2=O)C[C@@](O)(C(=O)COC(=O)CC(=O)O)C[C@@H]3OC1CC(NC(=O)C(F)(F)F)C(O)C(C)O1 (stereo not given in full) = 330 nM
• COc1cccc2c1C(=O)c1c(O)c3c(c(O)c1C2=O)C[C@@](O)(C(=O)COC(=O)CCCCCC(=O)O)C[C@@H]3OC1CC(NC(=O)C(F)(F)F)C(O)C(C)O1 (stereo not given in full) = 360 nM
• COc1cccc2c1C(=O)c1c(O)c3c(c(O)c1C2=O)C[C@@](O)(C(=O)COC(=O)CCCCCCCCC(=O)O)C[C@@H]3OC1CC(NC(=O)C(F)(F)F)C(O)C(C)O1 (stereo not given in full) = 500 nM
• COc1cccc2c1C(=O)c1c(O)c3c(c(O)c1C2=O)C[C@@](O)(C(=O)COC(=O)CCCCC(=O)O)C[C@@H]3OC1CC(NC(=O)C(F)(F)F)C(O)C(C)O1 (stereo not given in full) = 310 nM

For the next question, use this molecule.
// recorded IC50 for COc1cccc2c1C(=O)c1c(O)c3c(c(O)c1C2=O)C[C@@](O)(C(=O)CO)C[C@@H]3OC1CC(NC(=O)C(F)(F)F)C(O)C(C)O1 (stereo not given in full) : 230 nM

Recorded values, source ChEMBL document CHEMBL1123031.
